molecular target: Human Akt1 (UniProt entry P31749) (Homo sapiens, UniProt P31749, C296S/C310S/C344S/E49C); construct: made in house; host or cells: baculovirus, TriEx Sf9 cells; experiment: iFLiK assay (fluorophore-labeled Akt1 binding assay); settings: PyMPO-labeled Akt1
Sequence (P31749 whole entry E49C/C296S/C310S/C344S, one chain of several): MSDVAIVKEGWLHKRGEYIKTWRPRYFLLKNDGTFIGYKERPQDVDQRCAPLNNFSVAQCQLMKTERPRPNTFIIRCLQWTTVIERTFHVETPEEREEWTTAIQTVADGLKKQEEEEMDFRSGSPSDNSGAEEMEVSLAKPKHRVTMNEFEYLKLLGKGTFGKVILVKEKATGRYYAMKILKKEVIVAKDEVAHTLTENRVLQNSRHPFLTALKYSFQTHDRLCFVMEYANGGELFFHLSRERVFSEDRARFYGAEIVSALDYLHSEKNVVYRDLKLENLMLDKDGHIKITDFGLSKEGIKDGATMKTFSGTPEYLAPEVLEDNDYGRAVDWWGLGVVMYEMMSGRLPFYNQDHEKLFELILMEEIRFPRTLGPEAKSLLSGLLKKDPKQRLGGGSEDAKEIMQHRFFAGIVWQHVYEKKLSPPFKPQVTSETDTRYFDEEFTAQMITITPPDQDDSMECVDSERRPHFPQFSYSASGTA
Readout Label: effect on PyMPO fluorescence (emission spectrum)

NC1(Cc2ccc(Cl)cc2)CCN(c2ncnc3[nH]ccc23)CC1 :: no effect
CCn1c(-c2nonc2N)nc2c(C#CC(C)(C)O)ncc(OC[C@H]3CCCNC3)c21 :: no effect
